# key: entry, value: IC50
- Method summary: in vitro cytotoxicity assay, HCT-115
- Assay type: cell-based
- Setup conditions: HCT-115 cells; HCT-115 human cancer cell line
Write the answer as a number in µM, unit excluded.

// returns reported IC50 for input CCC(C=CC(=O)O)=CC(=O)CC(C)CC(C)CCC(O)C(C)C(=O)CC(O)C(C)C(C)OC(=O)CC(O)C1=C(C)C(=O)OC1=O (centres unmarked) 18

// returns reported IC50 for input CCC(C=CC(=O)O)=CC(O)CC(C)CC(C)CCC(O)C(C)C(=O)CC(O)C(C)C(C)OC(=O)CC(O)C1=C(C)C(=O)OC1=O (centres unmarked) 16

====

- Method summary: in vitro cytotoxicity assay, Du145
- Type: cell-based
- Setup conditions: Du145 cells; Du145 human cancer cell line
# key: entry, value: pIC50
# log scale: pIC50 equals minus log10 of the concentration in mol/L

- Compound: "CCC(C=CC(=O)O)=CC(O)CC(C)CC(C)CCC(O)C(C)C(=O)CC(O)C(C)C(C)OC(=O)CC(O)C1=C(C)C(=O)OC1=O (centres unmarked)"
  pIC50: 4.85

// returns reported pIC50 for input CCC(C=CC(=O)O)=CC(=O)CC(C)CC(C)CCC(O)C(C)C(=O)CC(O)C(C)C(C)OC(=O)CC(O)C1=C(C)C(=O)OC1=O (centres unmarked) 4.89

====

- Method summary: in vitro cytotoxicity assay, MCF7
- Format: cell-based
- Setup conditions: MCF7 cells; MCF7 human cancer cell line
Metric name: IC50
Kindly format the answer as number then unit.

- Compound: "CCC(C=CC(=O)O)=CC(=O)CC(C)CC(C)CCC(O)C(C)C(=O)CC(O)C(C)C(C)OC(=O)CC(O)C1=C(C)C(=O)OC1=O [TTN D-4 (7)]"
  IC50: "17 µM"

Could you now look at the following compound, please?
// returns reported IC50 for input CCC(C=CC(=O)O)=CC(O)CC(C)CC(C)CCC(O)C(C)C(=O)CC(O)C(C)C(C)OC(=O)CC(O)C1=C(C)C(=O)OC1=O [TTN D-3 (6)] 11 µM

Values were extracted from patent US8580977B2.
